Data origin, for the record: patent US7514450B2

Target: α7-subtype of nicotinic receptors (Rattus norvegicus, UniProt Q05941)
Sequence (Q05941 23-502): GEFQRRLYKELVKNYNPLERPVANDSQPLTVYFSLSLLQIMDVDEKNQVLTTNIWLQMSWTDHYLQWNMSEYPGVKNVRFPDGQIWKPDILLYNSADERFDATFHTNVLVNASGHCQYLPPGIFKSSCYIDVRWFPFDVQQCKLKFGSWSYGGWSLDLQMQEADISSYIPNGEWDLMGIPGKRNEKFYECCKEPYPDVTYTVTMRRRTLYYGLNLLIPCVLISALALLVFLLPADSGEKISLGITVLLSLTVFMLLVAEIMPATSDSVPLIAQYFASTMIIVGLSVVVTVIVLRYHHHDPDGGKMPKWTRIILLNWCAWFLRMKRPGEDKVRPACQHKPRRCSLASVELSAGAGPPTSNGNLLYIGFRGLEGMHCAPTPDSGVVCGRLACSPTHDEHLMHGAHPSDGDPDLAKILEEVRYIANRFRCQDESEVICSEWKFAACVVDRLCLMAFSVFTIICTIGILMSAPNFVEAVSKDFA
pIC50: −log10 of the molar value.

{"compound": "O=C(Nc1ccc(-c2ccc(C(=O)NC3CN4CCC3CC4)o2)cc1)c1ccccc1 (racemic)", "tested_on": "α7-subtype of nicotinic receptors (Rattus norvegicus, UniProt Q05941)", "pIC50": 7.10}
